# assayedSystem: Amyloid-beta precursor protein (Homo sapiens)
# Sequence (P05067 whole entry): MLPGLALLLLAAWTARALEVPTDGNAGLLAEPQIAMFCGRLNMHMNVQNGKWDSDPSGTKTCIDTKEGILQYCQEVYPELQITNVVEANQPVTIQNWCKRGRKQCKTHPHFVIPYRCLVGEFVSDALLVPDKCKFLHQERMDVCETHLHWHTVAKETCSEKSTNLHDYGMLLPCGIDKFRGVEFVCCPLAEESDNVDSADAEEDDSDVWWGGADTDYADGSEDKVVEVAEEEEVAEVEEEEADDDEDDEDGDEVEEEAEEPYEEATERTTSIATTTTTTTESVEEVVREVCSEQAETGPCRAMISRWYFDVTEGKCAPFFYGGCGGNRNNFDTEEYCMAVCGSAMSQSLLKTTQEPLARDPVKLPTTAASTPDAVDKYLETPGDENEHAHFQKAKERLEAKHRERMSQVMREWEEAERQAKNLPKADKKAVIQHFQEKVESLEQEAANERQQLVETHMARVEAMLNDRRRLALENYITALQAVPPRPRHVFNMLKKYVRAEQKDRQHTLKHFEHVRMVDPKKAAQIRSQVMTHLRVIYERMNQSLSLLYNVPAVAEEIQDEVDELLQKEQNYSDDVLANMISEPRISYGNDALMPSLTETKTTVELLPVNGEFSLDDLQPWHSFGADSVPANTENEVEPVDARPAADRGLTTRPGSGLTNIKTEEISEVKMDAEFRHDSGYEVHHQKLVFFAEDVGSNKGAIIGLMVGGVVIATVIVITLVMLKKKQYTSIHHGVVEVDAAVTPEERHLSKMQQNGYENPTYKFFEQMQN
# testDescription: Inhibition of human amyloid beta (1 to 40) fibrillization at 100 uM measured every 15 mins by Thioflavin-T fluorescence assay relative to control
reportedMetric: inhibition (%)

Example entries begin here.
{"columns": ["molecule", "assayValue"],
 "data": [
  ["COc1ccc(C(O)C(F)(F)F)c(NCc2ccco2)c1 (stereo not given)", 36.8],
  ["CNC(=O)c1cc(C(=O)O)c(NCc2ccco2)cc1Cl", 19.1],
  ["O=C(O)c1cc(C(=O)N2CCOCC2)c(Cl)cc1NCc1ccco1", 34]
]}

a: OC(c1ccc(Br)cc1NCc1ccco1)C(F)(F)F (stereo not given)
b: CN(C)C(=O)c1cc(C(=O)O)c(NCc2ccco2)cc1Cl
Field: lower recorded inhibition (choose a or b ) Answer by stating the label of the chosen item.
b
